Test system: Staphylococcus sp.
protocol.summary: In vitro antibacterial evaluation: minimum inhibitory concentration (MIC), broth dilution method
Assay type: cell-based
assay.context: broth dilution, 5×10^5 CFU/mL, 18 hours at 35° C.
property.measured: MIC Coagulase Negative Staphylococcus (GC 6257) (µg/mL)

INSERT INTO assay_data (molecule, number) VALUES
  ('COc1cccc(C2OC3C(OC4C(CO)OC(Oc5ccc(CC6NC(=O)C(C(C)c7ccccc7)NC(=O)CNC(=O)C(CO)NC(=O)C(C(O)C7CNC(=N)N7C7OC(CO)C(O)C(O)C7O)NC(=O)C(C(O)C7CNC(=N)N7)NC6=O)cc5)C(O)C4O)OC(CO)C(O)C3O2)c1 (single isomer, unassigned) [Example 137b]', 4),
  ('CC(c1ccccc1)C1NC(=O)CNC(=O)C(CO)NC(=O)C(C(O)C2CNC(=N)N2C2OC(CO)C(O)C(O)C2O)NC(=O)C(C(O)C2CNC(=N)N2)NC(=O)C(Cc2ccc(OC3OC(CO)C(OC4OC5COC(c6ccc(C(C)(C)C)cc6)OC5C(O)C4O)C(O)C3O)cc2)NC1=O (stereo not shown)', 2),
  ('CCOc1cc(C2OCC3OC(OC4C(CO)OC(Oc5ccc(CC6NC(=O)C(C(C)c7ccccc7)NC(=O)CNC(=O)C(CO)NC(=O)C(C(O)C7CNC(=N)N7C7OC(CO)C(O)C(O)C7O)NC(=O)C(C(O)C7CNC(=N)N7)NC6=O)cc5)C(O)C4O)C(O)C(O)C3O2)ccc1[N+](=O)[O-] (stereo not shown)', 8),
  ('CC(=O)n1cc(C2OCC3OC(OC4C(CO)OC(Oc5ccc(CC6NC(=O)C(C(C)c7ccccc7)NC(=O)CNC(=O)C(CO)NC(=O)C(C(O)C7CNC(=N)N7C7OC(CO)C(O)C(O)C7O)NC(=O)C(C(O)C7CNC(=N)N7)NC6=O)cc5)C(O)C4O)C(O)C(O)C3O2)c2ccccc21 (stereo not shown)', 2),
  ('CC(c1ccccc1)C1NC(=O)CNC(=O)C(CO)NC(=O)C(C(O)C2CNC(=N)N2C2OC(CO)C(O)C(O)C2O)NC(=O)C(C(O)C2CNC(=N)N2)NC(=O)C(Cc2ccc(OC3OC(CO)C(OC4OC5COC(c6cccc(Cl)c6)OC5C(O)C4O)C(O)C3O)cc2)NC1=O (stereo not shown)', 2),
  ('CC(c1ccccc1)C1NC(=O)CNC(=O)C(CO)NC(=O)C(C(O)C2CNC(=N)N2C2OC(CO)C(O)C(O)C2O)NC(=O)C(C(O)C2CNC(=N)N2)NC(=O)C(Cc2ccc(OC3OC(CO)C(OC4OC5COC(c6ccc(S(C)(=O)=O)cc6)OC5C(O)C4O)C(O)C3O)cc2)NC1=O (stereo not shown)', 4),
  ('CC(c1ccccc1)C1NC(=O)CNC(=O)C(CO)NC(=O)C(C(O)C2CNC(=N)N2C2OC(CO)C(O)C(O)C2O)NC(=O)C(C(O)C2CNC(=N)N2)NC(=O)C(Cc2ccc(OC3OC(CO)C(OC4OC5COC(c6ccc(C=Cc7ccccc7)cc6)OC5C(O)C4O)C(O)C3O)cc2)NC1=O (stereo not shown)', 2),
  ('CC(c1ccccc1)C1NC(=O)CNC(=O)C(CO)NC(=O)C(C(O)C2CNC(=N)N2C2OC(CO)C(O)C(O)C2O)NC(=O)C(C(O)C2CNC(=N)N2)NC(=O)C(Cc2ccc(OC3OC(CO)C(OC4OC5COC(c6ccc7c(c6)OCCO7)OC5C(O)C4O)C(O)C3O)cc2)NC1=O (stereo not shown)', 1),
  ('COc1cc(C2OCC3OC(OC4C(CO)OC(Oc5ccc(CC6NC(=O)C(C(C)c7ccccc7)NC(=O)CNC(=O)C(CO)NC(=O)C(C(O)C7CNC(=N)N7C7OC(CO)C(O)C(O)C7O)NC(=O)C(C(O)C7CNC(=N)N7)NC6=O)cc5)C(O)C4O)C(O)C(O)C3O2)ccc1[N+](=O)[O-] (stereo not shown)', 0.5),
  ('CCOc1cc(C2OCC3OC(OC4C(CO)OC(Oc5ccc(CC6NC(=O)C(C(C)c7ccccc7)NC(=O)CNC(=O)C(CO)NC(=O)C(C(O)C7CNC(=N)N7C7OC(CO)C(O)C(O)C7O)NC(=O)C(C(O)C7CNC(=N)N7)NC6=O)cc5)C(O)C4O)C(O)C(O)C3O2)ccc1OC (stereo not shown)', 8);

====

Tested on: Streptococcus sp.
protocol.summary: In vitro antibacterial evaluation: minimum inhibitory concentration (MIC), broth dilution method
Assay type: cell-based
assay.context: broth dilution, 5×10^5 CFU/mL, 18 hours at 35° C.
property.measured: MIC Streptococcus agalactiae (GC 4564)

INSERT INTO assay_data (molecule, property_measured, result) VALUES
  ('N=C1NCC(C(O)C2NC(=O)C(Cc3ccc(OC4OC(CO)C(OC5OC(CO)C(O)C6OC7(OC56)C5CC6CC(C5)CC7C6)C(O)C4O)cc3)NC(=O)C(CC3CCCCC3)NC(=O)CNC(=O)C(CO)NC(=O)C(C(O)C3CNC(=N)N3C3OC(CO)C(O)C(O)C3O)NC2=O)N1 (centres unmarked) [Example 106a]', 'MIC Streptococcus agalactiae (GC 4564)', '0.25 µg/mL'),
  ('CC(C)=CCCC1OCC2OC(OC3C(CO)OC(Oc4ccc(CC5NC(=O)C(C(C)c6ccccc6)NC(=O)CNC(=O)C(CO)NC(=O)C(C(O)C6CNC(=N)N6C6OC(CO)C(O)C(O)C6O)NC(=O)C(C(O)C6CNC(=N)N6)NC5=O)cc4)C(O)C3O)C(O)C(O)C2O1 (centres unmarked)', 'MIC Streptococcus agalactiae (GC 4564)', '2 µg/mL');

====

Documented MIC Enterococcus faecalis (GC 3059) across a set of molecules
Test system: Enterococcus sp.
protocol.summary: In vitro antibacterial evaluation: minimum inhibitory concentration (MIC), broth dilution method
Type: cell-based
assay.context: Enterococcus faecalis (GC 3059); 18 hours at 35° C.
property.measured: MIC Enterococcus faecalis (GC 3059) (µg/mL)

INSERT INTO assay_data (molecule, tested_on, property_measured, result_comparator, number) VALUES
  ('CC(C1CCCCC1)C1NC(=O)CNC(=O)C(CO)NC(=O)C(C(O)C2CNC(=N)N2C2OC(CO)C(O)C(O)C2O)NC(=O)C(C(O)C2CNC(=N)N2)NC(=O)C(Cc2ccc(OC3OC(CO)C(OC4OC5COC6(OC5C(O)C4O)C4CC5CC(C4)CC6C5)C(O)C3O)cc2)NC1=O (stereo not shown) [Example 221]', 'Enterococcus sp.', 'MIC Enterococcus faecalis (GC 3059)', '=', 1),
  ('CC(c1ccccc1)C1NC(=O)CNC(=O)C(CO)NC(=O)C(C(O)C2CNC(=N)N2C2OC(CO)C(O)C(O)C2O)NC(=O)C(C(O)C2CNC(=N)N2)NC(=O)C(Cc2ccc(OC3OC(CO)C(OC4OC(CO)C(OCC=Cc5ccc(N(C)C)cc5)C(O)C4O)C(O)C3O)cc2)NC1=O (stereo not shown) [Example 243a]', 'Enterococcus sp.', 'MIC Enterococcus faecalis (GC 3059)', '=', 32),
  ('Cc1ccc(Oc2cccc(C3OCC4OC(OC5C(CO)OC(Oc6ccc(CC7NC(=O)C(C(C)c8ccccc8)NC(=O)CNC(=O)C(CO)NC(=O)C(C(O)C8CNC(=N)N8C8OC(CO)C(O)C(O)C8O)NC(=O)C(C(O)C8CNC(=N)N8)NC7=O)cc6I)C(O)C5O)C(O)C(O)C4O3)c2)cc1 (stereo not shown) [Example 197]', 'Enterococcus sp.', 'MIC Enterococcus faecalis (GC 3059)', '>', 64),
  ('COc1ccc(COCC2OC(OC3C(CO)OC(Oc4ccc(CC5NC(=O)C(C(C)c6ccccc6)NC(=O)CNC(=O)C(CO)NC(=O)C(C(O)C6CNC(=N)N6C6OC(CO)C(O)C(O)C6O)NC(=O)C(C(O)C6CNC(=N)N6)NC5=O)cc4)C(O)C3O)C(O)C(O)C2O)cc1 (stereo not shown) [Example 232]', 'Enterococcus sp.', 'MIC Enterococcus faecalis (GC 3059)', '=', 32),
  ('CC(c1ccccc1)C1NC(=O)CNC(=O)C(CO)NC(=O)C(C(O)C2CNC(=N)N2C2OC(CO)C(O)C(O)C2O)NC(=O)C(C(O)C2CNC(=N)N2)NC(=O)C(Cc2ccc(OC3OC(CO)C(OC4OC5COC(c6ccc(C(=O)c7ccc(I)cc7)cc6)OC5C(O)C4O)C(O)C3O)cc2)NC1=O (stereo not shown) [Example 186]', 'Enterococcus sp.', 'MIC Enterococcus faecalis (GC 3059)', '=', 2),
  ('CC(c1ccccc1)C1NC(=O)CNC(=O)C(CO)NC(=O)C(C(O)C2CNC(=N)N2C2OC(CO)C(O)C(O)C2O)NC(=O)C(C(O)C2CNC(=N)N2)NC(=O)C(Cc2ccc(OC3OC(CO)C(OC4OC5COC6(CCCCCCCCCCCC6)OC5C(O)C4O)C(O)C3O)cc2)NC1=O (stereo not shown) [Example 210]', 'Enterococcus sp.', 'MIC Enterococcus faecalis (GC 3059)', '=', 32),
  ('CC(c1ccccc1)C1NC(=O)CNC(=O)C(CO)NC(=O)C(C(O)C2CNC(=N)N2C2OC(CO)C(O)C(O)C2O)NC(=O)C(C(O)C2CNC(=N)N2)NC(=O)C(Cc2ccc(OC3OC(CO)C(OC4OC5COC6(CC7CCC6(C)C7(C)C)OC5C(O)C4O)C(O)C3O)cc2)NC1=O (stereo not shown) [Example 215]', 'Enterococcus sp.', 'MIC Enterococcus faecalis (GC 3059)', '=', 1);

The measured values listed here are drawn from patent US8247211B2.
